Tgt: purified recombinant mouse ENPP1 (Mus musculus, UniProt P06802)
Sequence (P06802 whole entry): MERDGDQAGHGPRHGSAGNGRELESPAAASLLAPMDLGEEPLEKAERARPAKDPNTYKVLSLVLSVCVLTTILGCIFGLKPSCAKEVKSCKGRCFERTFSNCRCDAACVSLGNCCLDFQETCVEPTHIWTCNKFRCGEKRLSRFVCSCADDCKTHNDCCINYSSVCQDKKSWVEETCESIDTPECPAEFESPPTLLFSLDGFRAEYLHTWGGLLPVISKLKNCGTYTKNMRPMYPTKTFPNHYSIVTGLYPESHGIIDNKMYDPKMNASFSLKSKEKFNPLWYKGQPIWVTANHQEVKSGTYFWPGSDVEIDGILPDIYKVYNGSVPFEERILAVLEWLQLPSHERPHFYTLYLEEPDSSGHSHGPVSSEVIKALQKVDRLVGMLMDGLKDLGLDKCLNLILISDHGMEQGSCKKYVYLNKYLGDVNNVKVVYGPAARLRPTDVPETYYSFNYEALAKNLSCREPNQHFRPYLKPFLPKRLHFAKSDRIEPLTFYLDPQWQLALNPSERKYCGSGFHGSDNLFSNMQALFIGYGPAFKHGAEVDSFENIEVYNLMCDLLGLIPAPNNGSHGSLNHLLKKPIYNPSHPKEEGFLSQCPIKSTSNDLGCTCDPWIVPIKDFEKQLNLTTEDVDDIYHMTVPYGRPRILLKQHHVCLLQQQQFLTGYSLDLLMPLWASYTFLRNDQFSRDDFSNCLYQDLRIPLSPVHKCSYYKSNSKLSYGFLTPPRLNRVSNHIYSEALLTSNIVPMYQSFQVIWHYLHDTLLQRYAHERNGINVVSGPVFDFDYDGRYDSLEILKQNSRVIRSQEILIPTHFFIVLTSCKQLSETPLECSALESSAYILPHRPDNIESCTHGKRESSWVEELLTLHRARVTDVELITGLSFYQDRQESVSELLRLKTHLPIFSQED
Experiment Summary: ENPP1 activity assay using TMP-pNP as a substrate
Format: biochemical
Assay Setup: TMP-pNP 2 μM, mouse ENPP1 0.5 nM, pH 7.5
Protocol: Selected compounds of Table 1, Table 2, Table 3, Table 4, Table 5, or Table 6 and other derivatives were prepared and assessed in an ENPP1 activity assay using thymidine monophosphate paranitrophenol (TMP-pNP) as a substrate. […] Reaction progress was monitored by measuring absorbance at 400 nm of paranitrophenolate produced by the reaction for 20 minutes.
Parameter Measured: IC50

Query: Return IC50 for the following molecule: O=P(O)(O)CCC1CCN(c2ncnc3ccccc23)CC1 [compound 25]
Reply: 0.005 to 0.05 µM

Reference source: patent US20240374724A1
